Each recorded value in this set is attributed to patent US20250011285A1.

Target: CYP11A1 (Homo sapiens)
Construct: human H295R adrenocortical carcinoma cell line was used as source of enzyme; endogenous in cells
Sequence (P05108 40-521): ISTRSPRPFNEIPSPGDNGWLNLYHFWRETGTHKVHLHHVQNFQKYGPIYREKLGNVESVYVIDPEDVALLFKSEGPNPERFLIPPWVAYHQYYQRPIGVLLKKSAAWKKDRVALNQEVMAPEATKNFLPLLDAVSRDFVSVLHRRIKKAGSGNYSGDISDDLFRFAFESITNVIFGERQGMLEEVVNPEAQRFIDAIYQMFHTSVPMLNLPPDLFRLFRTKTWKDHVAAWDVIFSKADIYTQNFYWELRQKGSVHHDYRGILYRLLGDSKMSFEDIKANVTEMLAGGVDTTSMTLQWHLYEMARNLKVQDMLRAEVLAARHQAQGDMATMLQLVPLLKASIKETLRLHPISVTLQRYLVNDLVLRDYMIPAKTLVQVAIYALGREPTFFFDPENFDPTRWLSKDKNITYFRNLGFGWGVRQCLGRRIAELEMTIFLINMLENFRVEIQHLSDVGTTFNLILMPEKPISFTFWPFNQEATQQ
Assay: CYP11A1 inhibition, isocaproic acid release assay (IARA) in H295R cells
Details: human H295R adrenocortical carcinoma cells treated three days, 3 nM [24,25-3H]-labelled cholesterol, 1% DMSO; read-out: IC50 on CYP11A1 inhibition (Group)
Method: The ability of the test compounds to inhibit conversion of cholesterol to pregnenolone and isocaproic acid was measured by modification of isocaproic acid release assay (IARA) described by Ruangwises et al. (Biology of Reproduction 1991; 45(1):143-50) except that human H295R adrenocortical carcinoma cell line was used as source of enzyme and extraction was done with dextran-coated charcoal suspension (Isomaa, V. et al., Endocrinology 1982; 111(3):833-843). […]
experimental.endpoint: IC50

Task: Indicate its recorded IC50; the molecule in question is COc1cc(CN2Cc3ccccc3C2)ccc1OCc1ccc(C(=O)N(C)CCOC(C)=O)cc1 [Compound 36]
Result: 151 to 350 nM

Task: Indicate its recorded IC50; the molecule in question is CC(=O)c1cc(CN2Cc3ccccc3C2)ccc1OCC1CCN(S(C)(=O)=O)CC1 [Compound 48]
Result: < 150 nM

Task: Indicate its recorded IC50; the molecule in question is CN(C)C(=O)c1ccc(COc2ccc(CN3Cc4ccccc4C3)cc2O)cc1 [Compound 5]
Result: 151 to 350 nM

Task: Indicate its recorded IC50; the molecule in question is CS(=O)(=O)N1CCC(COc2ccc(CN3Cc4ccccc4C3)c3ncoc23)CC1 [Compound 46]
Result: 351 to 1500 nM

Task: Indicate its recorded IC50; the molecule in question is COC(=O)/C=C/c1ccc(COc2ccc(CN3Cc4ccccc4C3)cc2OC)cc1 [Compound 9]
Result: 351 to 1500 nM

Task: Indicate its recorded IC50; the molecule in question is CN(C)C(=O)c1ccc(COc2ccc(CN3Cc4ccccc4C3)cc2[N+](=O)[O-])cc1 [Compound 40]
Result: < 150 nM

Task: Indicate its recorded IC50; the molecule in question is CS(=O)(=O)c1ccc(COc2ccc(CN3Cc4ccccc4C3)cc2C#N)cc1 [Compound 16]
Result: 151 to 350 nM

Task: Indicate its recorded IC50; the molecule in question is CS(=N)(=O)c1ccc(COc2ccc(CN3Cc4ccccc4C3)c3cccnc23)cc1 (stereo not drawn) [Compound 44]
Result: < 150 nM

Task: Indicate its recorded IC50; the molecule in question is COc1cc(CN2Cc3ccc(S(C)(=O)=O)cc3C2)ccc1OCc1ccc(C(=O)N(C)C)cc1 [Compound 32]
Result: 351 to 1500 nM

Task: Indicate its recorded IC50; the molecule in question is CN(C)C(=O)c1ccc(COc2ccc(CN3Cc4ccccc4C3=O)cc2OC(F)(F)F)cc1 [Compound 30]
Result: 351 to 1500 nM

Task: Indicate its recorded IC50; the molecule in question is CN(C)C(=O)c1ccc(COc2ccc(CN3Cc4ccccc4C3)cc2OC(F)(F)F)cc1 [Compound 29]
Result: 351 to 1500 nM

Task: Indicate its recorded IC50; the molecule in question is COCc1cc(CN2Cc3ccccc3C2)ccc1OCC1CCN(S(C)(=O)=O)CC1 [Compound 22]
Result: < 150 nM

Task: Indicate its recorded IC50; the molecule in question is COC(=O)c1cc(CN2Cc3ccccc3C2)ccc1OCc1ccc(C(=O)N(C)C)cc1 [Compound 7]
Result: 151 to 350 nM

Task: Indicate its recorded IC50; the molecule in question is COc1c(OCC2CCN(C(=O)NC(C)C)CC2)ccc(CN2Cc3ccccc3C2)c1[N+](=O)[O-] [Compound 23]
Result: 351 to 1500 nM

Task: Indicate its recorded IC50; the molecule in question is COCCS(=O)(=O)c1ccc(COc2ccc(CN3Cc4ccccc4C3)cc2COC)cc1 [Compound 20]
Result: < 150 nM

Task: Indicate its recorded IC50; the molecule in question is COCc1cc(CN2Cc3ccccc3C2)ccc1OCc1ccc(S(C)(=O)=O)cc1 [Compound 18]
Result: 151 to 350 nM

Task: Indicate its recorded IC50; the molecule in question is CS(=N)(=O)c1ccc(COc2ccc(CN3Cc4ccccc4C3)cc2C#N)cc1 (stereo not drawn) [Compound 33]
Result: < 150 nM

Task: Indicate its recorded IC50; the molecule in question is CS(=O)(=O)N1CCC(COc2ccc(CN3Cc4ccccc4C3)cc2C#N)CC1 [Compound 19]
Result: < 150 nM

Task: Indicate its recorded IC50; the molecule in question is CS(=O)(=O)c1ccc(COc2ccc(CN3Cc4ccccc4C3)cc2C(N)=O)cc1 [Compound 54]
Result: < 150 nM

Task: Indicate its recorded IC50; the molecule in question is CN(C)C(=O)c1ccc(COc2ccc(CN3Cc4ccccc4C3)c(F)c2)cc1 [Compound 24]
Result: 351 to 1500 nM

Task: Indicate its recorded IC50; the molecule in question is COc1cc(CN2Cc3ccc(SC)cc3C2)ccc1OCc1ccc(C(=O)N(C)C)cc1 [Compound 34]
Result: < 150 nM

Task: Indicate its recorded IC50; the molecule in question is CN(C)C(=O)c1cc(CN2Cc3ccccc3C2)ccc1OCc1ccc(S(C)(=O)=O)cc1 [Compound 17]
Result: 351 to 1500 nM

Task: Indicate its recorded IC50; the molecule in question is CN(C)C(=O)c1ccc(COc2ccc(CN3Cc4ccccc4C3)cc2N)cc1 [Compound 52]
Result: 351 to 1500 nM

Task: Indicate its recorded IC50; the molecule in question is COc1cc(CN2Cc3ccccc3C2)ccc1OCc1ccc(C(=O)N(C)C)cc1 [Compound 3]
Result: < 150 nM

Task: Indicate its recorded IC50; the molecule in question is CN(C)C(=O)c1ccc(COc2ccc(CN3Cc4ccccc4C3)cc2C#N)cc1 [Compound 6]
Result: < 150 nM

Task: Indicate its recorded IC50; the molecule in question is CC(=O)c1cc(CN2Cc3ccccc3C2)ccc1OCc1ccc(C(=O)N(C)C)cc1 [Compound 42]
Result: < 150 nM

Task: Indicate its recorded IC50; the molecule in question is CCC(=O)N1CCC(COc2ccc(CN3Cc4ccccc4C3)cc2C(C)=O)CC1 [Compound 49]
Result: 151 to 350 nM

Task: Indicate its recorded IC50; the molecule in question is COC(=O)c1ccc(COc2ccc(CN3Cc4ccccc4C3)cc2)cc1 [Compound 2]
Result: 351 to 1500 nM

Task: Indicate its recorded IC50; the molecule in question is COC(=O)c1ccc(COc2ccc(CN3Cc4ccccc4C3)cc2[N+](=O)[O-])cc1 [Compound 39]
Result: 351 to 1500 nM

Task: Indicate its recorded IC50; the molecule in question is CN(C)C(=O)c1ccc(COc2ccc(CN3Cc4ccccc4C3)cc2NS(C)(=O)=O)cc1 [Compound 53]
Result: 351 to 1500 nM
